B1: LINE1-full (parent)
chain: UACGUAGGUGGUUUUCCCCUGAUAGUGCUAAGGGGGCCUGGAAGUUUGGACUGGGCAGAGCUCAACACAGCGUGGCAAAGUGGCUGUGGCUAGACUGCCUCUCUGGAUUCCUCGUCACUCAGCAGGGCAUCUCUGAGAGAAAUGCC

Variants of: B1
Test: self-cleavage, relative activity (ratio to wild type); higher = more cleavage; in vitro, sequencing; the parent is a self-cleaving ribozyme
reportedEndpoint: self-cleavage
Enter a number only.

{"mutation": "A31C U134A", "self-cleavage": 1.26}
{"mutation": "G49A U62C", "self-cleavage": 0.03}
{"mutation": "G97U A129U", "self-cleavage": 0.08}
{"mutation": "U100A A117G", "self-cleavage": 0.61}

Field self-cleavage (entry A78G U134A ) reads 0.9

Field self-cleavage (entry C38G A138U ) reads 1.31

Field self-cleavage (entry A42U A117G ) reads 1.21

Field self-cleavage (entry C84U U100A ) reads 0.07

Field self-cleavage (entry U45C U115C ) reads 2.14

Field self-cleavage (entry U62C C66A ) reads 0.02

Field self-cleavage (entry A50G U132A ) reads 1.34

Field self-cleavage (entry U108C U132C ) reads 1.83

Field self-cleavage (entry U87A G88C ) reads 0.08

Field self-cleavage (entry U26C U96C ) reads 0.29

Field self-cleavage (entry A77G U119C ) reads 2.81

Field self-cleavage (entry C28A G32A ) reads 0.7

Field self-cleavage (entry U1C G83A ) reads 0.74

Field self-cleavage (entry A50U G80C ) reads 0.82

Field self-cleavage (entry U85A A140U ) reads 0.09

Field self-cleavage (entry G122A A136G ) reads 1.54

Field self-cleavage (entry U1C G93A ) reads 0.09

Field self-cleavage (entry U15C U112C ) reads 1.37

This collection of values is drawn from the RNAGym collection of RNA variant scans (doi:10.7554/elife.90254).
